test: qHTS assay to test for compound auto fluorescence at 590 nm (red) in HepG2 cells (AID 720674); conditions: HepG2 autofluorescence, red 540/590 nm, 1 h; series mostly up to 91.3 µM; note: % is set by controls: 0 for no effect and ±100 for the full control effect
Activity calls are given as the source filed them. Calls come from the whole dose curve; as a rule, active = well fitted curve in the direction sought with a large enough effect in the repeat runs; inconclusive = weak or mixed curves; inactive = flat fitted curve, though single readings scatter.

{"columns": ["compound", "fluorescence, relative to Rose Bengal"],
 "data": [
  ["CC(C)(C)C(=O)C(=O)O", "inactive"],
  ["CC(C)c1nc(CN(C)C(=O)N[C@H](C(=O)N[C@@H](Cc2ccccc2)C[C@H](O)[C@H](Cc2ccccc2)NC(=O)OCc2cncs2)C(C)C)cs1", "inactive"],
  ["CN1C(=O)N(c2ccccc2Br)Cc2cnc(Nc3ccc4c(c3)OCC(CO)O4)nc21 (stereo not given)", "inactive"],
  ["CN(C)CCN1C(=O)c2ccccc2N(C)c2ccccc21", "inactive"],
  ["CCOc1ccc(Cc2nccc3cc(OCC)c(OCC)cc23)cc1OCC", "0.4% [at 18.6 µM] (inactive)"]
]}

---

molecular target: Voltage-gated inwardly rectifying potassium channel KCNH2 (Homo sapiens); assay: Human Ether-a-go-go-Related Gene (hERG) channel small molecule antagonists: fluorescence cell-based qHTS assay (AID 1671200); settings: hERG-U2OS cells, FluxOR thallium flux fluorescence; series mostly up to 76.8 µM; note: nearly all actives have a fitted effect of over 50% in size
Results filed as inconclusive are left out. Active and inactive are the calls of the source. Calls follow the shape of the dose curve; as a rule, active = well fitted inhibition curve with a large enough effect in the repeat runs; inconclusive = weak or mixed curves; inactive = flat fitted curve, though single readings scatter.
Outcomes: active, inactive

{"columns": ["molecule", "class name"],
 "data": [
  ["CCOC(=O)c1ccc(O)c(O)c1", "inactive"],
  ["CC(C)(C)C(=O)C(=O)O", "inactive"],
  ["c1ccc2c(c1)CCc1ccccc1N2", "inactive"],
  ["COc1cc(C(=O)NCCCCCC(=O)O)cc(OC)c1OC", "inactive"],
  ["CC(=O)OCC[N+](C)(C)C", "inactive"],
  ["Cc1ccc2c(Br)cc(Br)c(O)c2n1", "inactive"],
  ["CC1(CN2CCC(n3c(=O)[nH]c4ccccc43)CC2)OCc2ccccc2-n2cccc21 (configuration not stated)", "active"]
]}

---

test: qHTS RealTime-Glo MT Cell Viability Assay in HEK293 cells - 0 hour (AID 1224880); details: RealTime-Glo luminescence; series mostly up to 76.8 µM; note: nearly all actives have a fitted effect of over 45% in size
Inconclusive results are not listed. Activity calls are given as the source filed them. Calls come from the whole dose curve; as a rule, active = well fitted cell-killing curve with a large enough effect in the repeat runs; inconclusive = weak or mixed curves, or effect the other way; inactive = flat fitted curve, though single readings scatter.
Outcomes: active, inactive

{"columns": ["compound", "class name"],
 "data": [
  ["Cc1ccc(OC(=O)c2ccccc2O)cc1", "inactive"],
  ["c1csc(SSc2cccs2)c1", "inactive"],
  ["CC1(C)S[C@@H]2[C@H](NC(=O)C(c3ccccc3)S(=O)(=O)O)C(=O)N2[C@H]1C(=O)O (stereo partly drawn)", "inactive"],
  ["O=C(O)CCCCCCCCCCCBr", "inactive"],
  ["Cc1cc2c(OCC(CNC(C)(C)C)OC(=O)c3ccccc3)cccc2[nH]1 (stereo not drawn)", "inactive"],
  ["COc1cc(C(=O)NC2CCN(C)CC2)ccc1Nc1ncc2c(n1)N(C1CCCC1)CC(F)(F)C(=O)N2C", "inactive"],
  ["CCOC(=O)OC(C)OC(=O)[C@@H]1N2C(=O)[C@@H](NC(=O)[C@H](N)c3ccccc3)[C@H]2SC1(C)C (stereo partly drawn)", "inactive"],
  ["CC1CC(C)C(=O)C1=O (stereo not drawn)", "inactive"],
  ["O=C(CCc1ccc(O)cc1)c1c(O)cc(O)cc1O", "active"],
  ["Cc1cc(C)cc(N)c1", "inactive"],
  ["CN1CCCC(n2nc(Cc3ccc(Cl)cc3)c3ccccc3c2=O)CC1 (stereo not drawn)", "inactive"],
  ["COc1cc(Nc2c(C#N)cnc3cc(OCCCN4CCN(C)CC4)c(OC)cc23)c(Cl)cc1Cl", "inactive"],
  ["FC(F)(F)c1ccccc1Cl", "inactive"],
  ["O=C(/C=C/c1ccccc1)OCCc1ccccc1", "inactive"],
  ["CCCCN(CCCC)C(C(N)=O)c1ccc(OC)cc1 (stereo not drawn)", "inactive"],
  ["OC1(c2ccccc2)CCNCC1", "inactive"],
  ["O=C1Cc2ccccc2N1c1c(Cl)cccc1Cl", "inactive"],
  ["CC(C)C(O)(c1ccc(OC(F)(F)F)cc1)c1cncnc1 (stereo not drawn)", "inactive"],
  ["C(=C\\c1ccccc1)/c1ccccc1", "inactive"],
  ["CCCCOc1ccc(OCCCN2CCOCC2)cc1", "inactive"],
  ["C=C(C)C(=O)OCCOCCOC(=O)C(=C)C", "inactive"],
  ["CC1(C)[C@@H](OC(=O)CCC(=O)O)CC[C@]2(C)[C@H]3C(=O)C=C4[C@@H]5C[C@@](C)(C(=O)O)CC[C@]5(C)CC[C@@]4(C)[C@]3(C)CC[C@@H]12", "inactive"],
  ["C=C/C(C)=C/C/C=C(\\C)CCC=C(C)C", "inactive"],
  ["Cc1ccc(CO)cc1", "inactive"],
  ["O=C(Cn1ccnc1[N+](=O)[O-])NCCO", "inactive"],
  ["Oc1cc2c(cc1O)[C@H]1c3ccc(O)c(O)c3OC[C@@]1(O)C2", "inactive"],
  ["CC(CC1c2ccccc2CCc2ccccc21)CN(C)C (stereo not drawn)", "inactive"],
  ["O=C(O)c1ccc(OCCCOc2ccc(C(=O)O)cc2)cc1", "inactive"],
  ["Oc1c(I)cc(I)c2cccnc12", "inactive"],
  ["CCC(=O)C1CC(C(C)C)CC=C1C (stereo not drawn)", "inactive"],
  ["C=CCc1ccccc1OCC(O)CNC(C)C (stereo not drawn)", "inactive"],
  ["CCOC(=O)C1=C(C)NC(C)=C(C(=O)OC)C1c1cccc(Cl)c1Cl (stereo not drawn)", "active"],
  ["O=C1NCCN1CCO", "inactive"],
  ["CN1C[C@H](C(=O)N[C@]2(C)O[C@@]3(O)[C@@H]4CCCN4C(=O)[C@H](Cc4ccccc4)N3C2=O)C[C@@H]2c3cccc4[nH]cc(c34)C[C@H]21", "inactive"],
  ["c1cc(N(CC2CO2)CC2CO2)ccc1Cc1ccc(N(CC2CO2)CC2CO2)cc1 (stereo not drawn)", "inactive"],
  ["CC(CCC(=O)O)C(=O)O (stereo not drawn)", "inactive"],
  ["C1COC1", "inactive"],
  ["C=CC(=O)OCC1CC2CC1C1CCC(COC(=O)C=C)C21 (stereo not drawn)", "inactive"],
  ["CC[N+](CC)(CCNC(=O)C(=O)NCC[N+](CC)(CC)Cc1ccccc1Cl)Cc1ccccc1Cl", "inactive"],
  ["C=COCC(C)C", "inactive"],
  ["CC(C)=CC(=O)C=C(C)C", "inactive"],
  ["CC(=O)N/N=C/c1ccc([N+](=O)[O-])o1", "inactive"],
  ["Cc1ccco1", "inactive"],
  ["C[C@]1(Cn2ccnn2)[C@H](C(=O)O)N2C(=O)C[C@H]2S1(=O)=O", "inactive"],
  ["Brc1cc2ccccc2c2ccccc12", "inactive"],
  ["CC(C)(C)C(=O)C(=O)O", "inactive"],
  ["C=C1CCC2CC1C2(C)C (stereo not drawn)", "inactive"],
  ["COC(=O)CS", "inactive"],
  ["O=C(O)CCc1nc(-c2ccccc2)c(-c2ccccc2)o1", "inactive"],
  ["CCN(CC)CCNC(=O)COc1ccc(OC)cc1", "inactive"],
  ["CCOC(C)=O", "inactive"],
  ["O=C(O)c1cccc(-c2noc(-c3ccccc3F)n2)c1", "inactive"],
  ["CC(C)(c1ccccc1)c1ccccc1", "inactive"]
]}
